Recorded growth, one value per entry.
# System: NCI-H23 lung
# protocol: NCI-60 one-dose screen, 48 h (100 = growth as untreated, 0 = no growth, -100 = all killed)
# reported_conditions: 10 µM unless noted
The panel holds about 83,000 compounds, 20% with a hit somewhere; the sample as a whole holds those more often. Activity calls are given as the source filed them. The calls were made as follows: active = growth percent below 10; inactive = the rest.

{"smiles_str": "O=C(NC(=S)NNC(=S)NNc1ccccc1)c1ccccc1", "target_entity": "NCI-H23 lung", "growth": "25.9% (inactive)"}
{"smiles_str": "[N-]=[N+]=Nc1ncc(-c2ccc(C(F)(F)F)cc2)c(NC2CCCCCC2)n1", "target_entity": "NCI-H23 lung", "growth": "38% [100 µM] (inactive)"}
{"smiles_str": "Nc1ncn([C@@H]2O[C@H](CO)[C@@H](O)C2(F)F)c(=O)n1", "target_entity": "NCI-H23 lung", "growth": "30.6% (inactive)"}
{"smiles_str": "COc1ccc2c(c1)/C(=C/c1c(-c3cc(OC)c(OC)c(OC)c3)nc3sccn13)C(=O)N2", "target_entity": "NCI-H23 lung", "growth": "99.1% (inactive)"}
{"smiles_str": "CCC(C)(C)c1ccc(OCCCCCCN2CCNCC2)cc1", "target_entity": "NCI-H23 lung", "growth": "60% (inactive)"}
{"smiles_str": "CCCCCC(=C/c1ccccc1)/C=N/N=C(N)N", "target_entity": "NCI-H23 lung", "growth": "44.6% (inactive)"}
{"smiles_str": "N#CCc1ncc(-c2ccc(C(F)(F)F)cc2)c(NC2CCCCCC2)n1", "target_entity": "NCI-H23 lung", "growth": "25.7% [100 µM] (inactive)"}
{"smiles_str": "C[n+]1c2ccccc2c(Nc2ccc(NS(=O)(=O)CCCCN=C(N)N)cc2)c2ccc(N)cc21", "target_entity": "NCI-H23 lung", "growth": "26% (inactive)"}
{"smiles_str": "Nc1ccc(N=Nc2ccccc2)c2cc(S(=O)(=O)O)ccc12", "target_entity": "NCI-H23 lung", "growth": "91.4% (inactive)"}
{"smiles_str": "Cc1ccc(NCc2cn(-c3ccc(C(=O)O)cc3)nc2-c2ccc(C(=O)O)cc2)cc1", "target_entity": "NCI-H23 lung", "growth": "92.2% (inactive)"}
